Just for reference, patent US20250276075A1 is where these values come from.

- subject.of.test: T1, Axl (Homo sapiens, UniProt P30530)
- T1 sequence (P30530 26-451 limits assumed): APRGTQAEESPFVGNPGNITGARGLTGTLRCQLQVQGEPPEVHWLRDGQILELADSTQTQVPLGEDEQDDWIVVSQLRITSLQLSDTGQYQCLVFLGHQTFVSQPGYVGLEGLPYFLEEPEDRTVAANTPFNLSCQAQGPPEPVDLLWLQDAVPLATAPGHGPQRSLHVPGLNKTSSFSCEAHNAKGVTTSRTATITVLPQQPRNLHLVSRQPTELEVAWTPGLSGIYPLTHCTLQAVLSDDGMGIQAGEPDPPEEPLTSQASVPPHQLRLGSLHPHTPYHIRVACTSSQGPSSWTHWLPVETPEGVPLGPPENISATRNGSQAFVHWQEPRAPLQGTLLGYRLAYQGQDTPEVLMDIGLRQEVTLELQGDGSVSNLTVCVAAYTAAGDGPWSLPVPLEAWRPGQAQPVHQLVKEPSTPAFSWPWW
- experiment.summary: Affinity ELISA of CPE mutant antibodies for binding to Axl at pH 6.0 over pH 7.4
- condition.notes: heavy chain variable region mutants; 1:9 dilution
Quick reference: Affinity ELISA CPE mutant ratio (1:9, pH 6.0/7.4) of the listed items.
measurement.label: Affinity ELISA CPE mutant ratio (1:9, pH 6.0/7.4)

molecule: HC-H100W (antibody, V domains shown) VH: EVQLVQSGAEVKKPGATVKISCKVSGYSFTGHTMNWIRQPPGKGLEWIGLIKPSNGGTSYNQKFKGRVTISADKSISTAYLQWSSLKASDTAMYYCAHGWYESYFAMDYWGQGTLVTVSS VL: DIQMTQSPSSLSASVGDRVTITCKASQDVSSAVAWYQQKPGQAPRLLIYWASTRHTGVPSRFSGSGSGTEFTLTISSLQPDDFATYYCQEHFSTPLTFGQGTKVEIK
experimental.result: 5.908
//
molecule: HC-W110N (antibody, V domains shown) VH: EVQLVQSGAEVKKPGATVKISCKVSGYSFTGHTMNWIRQPPGKGLEWIGLIKPSNGGTSYNQKFKGRVTISADKSISTAYLQWSSLKASDTAMYYCAHGHYESYFAMDYNGQGTLVTVSS VL: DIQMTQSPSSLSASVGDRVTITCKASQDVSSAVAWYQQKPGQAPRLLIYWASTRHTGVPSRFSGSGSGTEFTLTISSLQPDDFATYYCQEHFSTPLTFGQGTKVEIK
experimental.result: 0.800
//
molecule: HC-S103M (antibody, V domains shown) VH: EVQLVQSGAEVKKPGATVKISCKVSGYSFTGHTMNWIRQPPGKGLEWIGLIKPSNGGTSYNQKFKGRVTISADKSISTAYLQWSSLKASDTAMYYCAHGHYEMYFAMDYWGQGTLVTVSS VL: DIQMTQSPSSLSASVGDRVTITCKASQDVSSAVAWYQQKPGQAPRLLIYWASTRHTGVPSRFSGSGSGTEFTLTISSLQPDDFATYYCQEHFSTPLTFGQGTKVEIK
experimental.result: 1.806
//
molecule: HC-N035I (antibody, V domains shown) VH: EVQLVQSGAEVKKPGATVKISCKVSGYSFTGHTMIWIRQPPGKGLEWIGLIKPSNGGTSYNQKFKGRVTISADKSISTAYLQWSSLKASDTAMYYCAHGHYESYFAMDYWGQGTLVTVSS VL: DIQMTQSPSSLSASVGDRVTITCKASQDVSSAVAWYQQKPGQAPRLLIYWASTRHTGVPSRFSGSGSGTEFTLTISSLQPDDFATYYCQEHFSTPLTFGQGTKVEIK
experimental.result: 1.121
//
molecule: HC-A106L (antibody, V domains shown) VH: EVQLVQSGAEVKKPGATVKISCKVSGYSFTGHTMNWIRQPPGKGLEWIGLIKPSNGGTSYNQKFKGRVTISADKSISTAYLQWSSLKASDTAMYYCAHGHYESYFLMDYWGQGTLVTVSS VL: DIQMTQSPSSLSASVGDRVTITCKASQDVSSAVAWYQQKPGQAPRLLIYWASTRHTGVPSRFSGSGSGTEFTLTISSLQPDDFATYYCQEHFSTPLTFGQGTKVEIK
experimental.result: 1.613
